- tested_system: EGFR wildtype (WT) (Homo sapiens, UniProt P00533)
- Sequence (P00533 25-1210): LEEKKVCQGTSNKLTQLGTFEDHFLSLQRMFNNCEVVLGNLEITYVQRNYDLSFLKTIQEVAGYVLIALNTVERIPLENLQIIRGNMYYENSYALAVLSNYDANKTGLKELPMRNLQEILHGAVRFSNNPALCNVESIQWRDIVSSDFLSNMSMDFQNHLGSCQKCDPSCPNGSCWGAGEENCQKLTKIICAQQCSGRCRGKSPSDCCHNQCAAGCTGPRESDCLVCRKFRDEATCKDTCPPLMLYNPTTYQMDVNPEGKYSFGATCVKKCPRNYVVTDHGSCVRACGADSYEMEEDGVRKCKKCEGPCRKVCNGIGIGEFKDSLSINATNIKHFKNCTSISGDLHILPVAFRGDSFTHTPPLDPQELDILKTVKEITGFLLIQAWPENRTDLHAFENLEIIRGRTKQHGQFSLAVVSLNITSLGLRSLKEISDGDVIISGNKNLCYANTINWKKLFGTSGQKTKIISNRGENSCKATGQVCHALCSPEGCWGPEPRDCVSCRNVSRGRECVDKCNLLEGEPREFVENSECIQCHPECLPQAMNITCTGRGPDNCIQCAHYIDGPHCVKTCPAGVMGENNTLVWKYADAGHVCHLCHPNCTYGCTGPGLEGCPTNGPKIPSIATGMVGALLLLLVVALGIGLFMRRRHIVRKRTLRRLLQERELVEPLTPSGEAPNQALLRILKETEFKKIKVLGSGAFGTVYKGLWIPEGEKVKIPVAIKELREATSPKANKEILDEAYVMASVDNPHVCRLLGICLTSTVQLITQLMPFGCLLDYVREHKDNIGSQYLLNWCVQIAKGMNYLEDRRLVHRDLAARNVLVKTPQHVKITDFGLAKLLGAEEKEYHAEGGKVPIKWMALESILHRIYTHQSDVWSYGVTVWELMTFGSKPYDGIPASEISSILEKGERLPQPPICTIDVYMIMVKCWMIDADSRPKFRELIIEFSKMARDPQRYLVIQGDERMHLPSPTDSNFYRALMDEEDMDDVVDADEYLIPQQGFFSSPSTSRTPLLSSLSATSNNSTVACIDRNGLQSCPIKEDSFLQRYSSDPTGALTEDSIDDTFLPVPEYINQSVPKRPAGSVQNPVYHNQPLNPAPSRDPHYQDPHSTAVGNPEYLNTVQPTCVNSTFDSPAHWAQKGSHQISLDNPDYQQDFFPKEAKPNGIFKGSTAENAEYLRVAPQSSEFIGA
- measurement_protocol: Biochemical EGFR kinase inhibition assay (Lance Ultra TR-FRET), wildtype
- conditions: ATP at Km; read-out: IC50 WT (nM), Km ATP

| structure_smiles | unit_descriptor | IC50 |
| --- | --- | --- |
| CN(C)CC1(C)CCN(c2cc(Nc3ccnc(-c4cnn(S(=O)(=O)C5CC5)c4)n3)ncc2C#Cc2cnn(C3CC3)c2)CC1 | nM | 4.7 |
| O=S(=O)(C1CC1)n1cc(-c2nccc(Nc3cc(N[C@H]4CC[C@@H](O)CC4)c(C#Cc4ccc(NCCN5CCOCC5)cc4)cn3)n2)cn1 | nM | 68.4 |
| CC1(CO)CCN(c2cc(Nc3ccnc(-c4cnn(S(=O)(=O)C5CC5)c4)n3)ncc2C#Cc2cccc(C(=O)N3CCOCC3)c2)CC1 | nM | 6.2 |

* * *

- tested_system: EGFR Del19/T790M/C797S (Homo sapiens, UniProt P00533, C797S/DEL746-750/T790M)
- Sequence (P00533 with tags, fused parts or gaps DEL746-750/T790M/C797S): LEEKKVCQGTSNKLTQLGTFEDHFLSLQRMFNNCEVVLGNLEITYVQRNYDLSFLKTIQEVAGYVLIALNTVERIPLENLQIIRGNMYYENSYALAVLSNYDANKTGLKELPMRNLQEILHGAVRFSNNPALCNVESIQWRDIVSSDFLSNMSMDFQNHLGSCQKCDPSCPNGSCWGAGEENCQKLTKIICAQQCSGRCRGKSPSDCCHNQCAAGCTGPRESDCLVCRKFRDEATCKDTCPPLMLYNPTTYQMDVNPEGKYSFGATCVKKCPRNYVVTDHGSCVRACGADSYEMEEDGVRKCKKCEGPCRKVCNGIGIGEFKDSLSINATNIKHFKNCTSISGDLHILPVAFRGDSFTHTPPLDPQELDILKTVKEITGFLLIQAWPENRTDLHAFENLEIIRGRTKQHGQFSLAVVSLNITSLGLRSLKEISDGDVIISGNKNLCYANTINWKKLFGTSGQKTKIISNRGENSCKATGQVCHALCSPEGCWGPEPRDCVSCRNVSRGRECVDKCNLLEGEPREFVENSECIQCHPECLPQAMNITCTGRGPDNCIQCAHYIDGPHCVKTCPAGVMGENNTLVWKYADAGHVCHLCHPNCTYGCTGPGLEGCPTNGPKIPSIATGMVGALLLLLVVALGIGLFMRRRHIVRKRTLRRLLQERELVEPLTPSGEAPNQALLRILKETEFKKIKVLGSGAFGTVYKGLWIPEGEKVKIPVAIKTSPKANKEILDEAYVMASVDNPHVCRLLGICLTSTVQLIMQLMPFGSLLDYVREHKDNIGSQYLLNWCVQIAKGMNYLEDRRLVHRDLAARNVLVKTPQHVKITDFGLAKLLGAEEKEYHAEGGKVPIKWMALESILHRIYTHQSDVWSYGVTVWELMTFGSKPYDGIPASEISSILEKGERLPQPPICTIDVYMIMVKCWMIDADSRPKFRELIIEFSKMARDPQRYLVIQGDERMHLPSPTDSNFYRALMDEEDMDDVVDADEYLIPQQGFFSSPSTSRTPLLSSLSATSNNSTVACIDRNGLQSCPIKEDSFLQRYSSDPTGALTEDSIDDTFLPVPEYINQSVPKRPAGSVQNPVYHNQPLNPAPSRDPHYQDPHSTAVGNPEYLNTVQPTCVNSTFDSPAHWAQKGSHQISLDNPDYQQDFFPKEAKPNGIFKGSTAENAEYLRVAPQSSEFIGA
- measurement_protocol: Biochemical EGFR kinase inhibition assay (Lance Ultra TR-FRET), triple mutant del19/T790M/C797S
- conditions: Km ATP; read-out: IC50 Del19/T790M/C797S (nM) Km ATP
Mark each entry yes (1) if its IC50 sits below 0.7 nM, and no (0) for all others.

| molecule | category_label |
| --- | --- |
| O=S(=O)(C1CC1)n1cc(-c2nccc(Nc3cc(N[C@H]4CC[C@@H](O)CC4)c(C#Cc4cnn(C5CCOCC5)c4)cn3)n2)cn1 [Example 94] | no (0) |
| CNC1CCN(c2cc(Nc3ccnc(-c4cnn(S(=O)(=O)C5CC5)c4)n3)ncc2C#Cc2ccn(C)n2)CC1 [Example 140] | no (0) |
| O=S(=O)(C1CC1)n1cc(-c2nccc(Nc3cc(N4CC[C@@H](O)C4)c(C#Cc4cnn(CCF)c4)cn3)n2)cn1 [Example 32] | no (0) |
| CC1(CO)CCN(c2cc(Nc3ccnc(-c4cnn(S(=O)(=O)C5CC5)c4)n3)ncc2C#Cc2cnn(CC(F)F)c2)CC1 [Example 49] | no (0) |
| CN(C)C[C@H]1CC[C@H](COc2cc(Nc3ccnc(-c4cnn(S(=O)(=O)C5CC5)c4)n3)ncc2C#Cc2cnn(CCF)c2)CC1 [Example 61] | yes (1) |
| CN1CC(n2cc(C#Cc3cnc(Nc4ccnc(-c5cnn(S(=O)(=O)C6CC6)c5)n4)cc3N3CCC(C)(CO)CC3)cn2)C1 [Example 148] | yes (1) |
| CN(C)CCn1cc(C#Cc2cnc(Nc3ccnc(-c4cnn(S(=O)(=O)C5CC5)c4)n3)cc2N2CCCC(CO)C2)cn1 (stereo not drawn) [Example 118] | yes (1) |
| Cn1cc(C#Cc2cnc(Nc3ccnc(-c4cnn(S(=O)(=O)C5CC5)c4)n3)cc2N2CCCC(O)CC2)cn1 (stereo not drawn) [Example 77] | no (0) |
| O=S(=O)(C1CC1)n1cc(-c2nccc(Nc3cc(N4CCCC(CO)C4)c(C#Cc4cnn(C5CCOCC5)c4)cn3)n2)cn1 (stereo not drawn) [Example 100] | no (0) |
| CN(C)CCCn1cc(C#Cc2cnc(Nc3ccnc(-c4cnn(S(=O)(=O)C5CC5)c4)n3)cc2N2CCC(NCCF)CC2)cn1 [Example 145] | yes (1) |
| CN(C)C[C@H]1CC[C@H](COc2cc(Nc3ccnc(-c4cnn(S(=O)(=O)C5CC5)c4)n3)ncc2C#Cc2cccnc2)CC1 [Example 62] | yes (1) |
| CN(C)Cc1ccc(CNc2cc(Nc3ccnc(-c4cnn(S(=O)(=O)C5CC5)c4)n3)ncc2C#Cc2cnn(CCF)c2)cc1 [Example 51] | no (0) |
| Cn1cc(C#Cc2cnc(Nc3ccnc(-c4cnn(S(=O)(=O)C5CC5)c4)n3)cc2-c2cnn(C)c2)cn1 [Example 233] | no (0) |
| O=S(=O)(C1CC1)n1cc(-c2nccc(Nc3cc(N4CCC(CO)CC4)c(C#Cc4cnn(CCF)c4)cn3)n2)cn1 [Example 30] | no (0) |
| COCCC#Cc1cnc(Nc2ccnc(-c3cnn(S(=O)(=O)C4CC4)c3)n2)cc1NC(C)C [Example 22] | no (0) |
| CCC(C)Nc1cc(Nc2ccnc(-c3cnn(S(=O)(=O)C4CC4)c3)n2)ncc1C#Cc1cnn(CCF)c1 (stereo not drawn) [Example 26] | no (0) |
| CC(C)Oc1cc(Nc2ccnc(-c3cnn(S(=O)(=O)C4CC4)c3)n2)ncc1C#Cc1cnn(C)c1 [Example 54] | no (0) |
| CCC(C)Nc1cc(Nc2ccnc(-c3cnn(S(=O)(=O)C4CC4)c3)n2)ncc1C#Cc1cnn(C(C)C)c1 (stereo not drawn) [Example 25] | no (0) |
| O=S(=O)(C1CC1)n1cc(-c2nccc(Nc3cc(N4CCN(CCO)CC4)c(C#Cc4cnn(CCF)c4)cn3)n2)cn1 [Example 16] | no (0) |
| O=C1CCN(c2cc(Nc3ccnc(-c4cnn(S(=O)(=O)C5CC5)c4)n3)ncc2C#Cc2cnn(C3CCOCC3)c2)CC1 [Example 93] | no (0) |
| CC(C)n1cc(C#Cc2cnc(Nc3ccnc(-c4cnn(S(=O)(=O)C5CC5)c4)n3)cc2OC[C@H]2CC[C@H](CN(C)C)CC2)cn1 [Example 59] | yes (1) |
| CN1CCC(n2cc(C#Cc3cnc(Nc4ccnc(-c5cnn(S(=O)(=O)C6CC6)c5)n4)cc3N3CCC(C)(CO)CC3)cn2)CC1 [Example 147] | yes (1) |
| CC1(CO)CCN(c2cc(Nc3ccnc(-c4cnn(S(=O)(=O)C5CC5)c4)n3)ncc2C#Cc2cnn(CCN3CCOCC3)c2)CC1 [Example 232] | no (0) |
| CCS(=O)(=O)N1CCN(c2cc(Nc3ccnc(-c4cnn(S(=O)(=O)C5CC5)c4)n3)ncc2C#Cc2cnn(C)c2)CC1 [Example 3] | no (0) |
| CN(C)CCCn1cc(C#Cc2cnc(Nc3ccnc(-c4cnn(S(=O)(=O)C5CC5)c4)n3)cc2N2CCC(F)(CO)CC2)cn1 [Example 121] | yes (1) |

* * *

- tested_system: EGFR L858R/C797S (Homo sapiens, UniProt P00533, C797S/L858R)
- Sequence (P00533 25-1210 C797S/L858R): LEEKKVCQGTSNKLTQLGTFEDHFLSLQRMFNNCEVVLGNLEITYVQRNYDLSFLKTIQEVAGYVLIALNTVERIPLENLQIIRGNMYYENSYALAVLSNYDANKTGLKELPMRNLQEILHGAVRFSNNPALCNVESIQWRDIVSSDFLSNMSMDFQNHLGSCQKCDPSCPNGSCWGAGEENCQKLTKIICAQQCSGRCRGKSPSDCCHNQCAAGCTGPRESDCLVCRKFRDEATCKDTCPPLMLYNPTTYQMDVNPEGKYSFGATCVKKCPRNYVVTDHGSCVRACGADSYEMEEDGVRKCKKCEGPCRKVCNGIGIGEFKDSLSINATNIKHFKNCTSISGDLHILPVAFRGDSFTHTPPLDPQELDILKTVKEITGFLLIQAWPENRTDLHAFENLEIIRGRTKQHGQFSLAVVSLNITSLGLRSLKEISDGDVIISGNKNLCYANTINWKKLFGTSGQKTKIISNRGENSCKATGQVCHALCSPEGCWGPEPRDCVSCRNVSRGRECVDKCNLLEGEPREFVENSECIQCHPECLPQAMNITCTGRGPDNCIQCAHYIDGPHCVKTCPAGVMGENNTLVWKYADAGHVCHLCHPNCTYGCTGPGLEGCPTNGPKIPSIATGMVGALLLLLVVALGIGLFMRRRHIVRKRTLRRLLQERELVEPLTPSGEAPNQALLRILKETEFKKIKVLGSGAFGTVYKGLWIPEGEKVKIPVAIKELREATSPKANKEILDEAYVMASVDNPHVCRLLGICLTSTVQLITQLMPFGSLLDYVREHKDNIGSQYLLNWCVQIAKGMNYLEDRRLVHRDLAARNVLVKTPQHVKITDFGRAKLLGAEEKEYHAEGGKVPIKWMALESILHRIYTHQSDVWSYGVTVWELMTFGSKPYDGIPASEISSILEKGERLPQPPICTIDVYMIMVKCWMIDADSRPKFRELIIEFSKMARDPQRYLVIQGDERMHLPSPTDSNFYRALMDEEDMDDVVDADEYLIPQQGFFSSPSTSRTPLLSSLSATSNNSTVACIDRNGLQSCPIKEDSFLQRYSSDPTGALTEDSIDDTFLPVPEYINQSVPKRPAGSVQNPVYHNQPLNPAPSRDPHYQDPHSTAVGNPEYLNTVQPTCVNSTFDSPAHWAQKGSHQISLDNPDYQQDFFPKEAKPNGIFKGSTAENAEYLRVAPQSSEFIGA
- measurement_protocol: Biochemical EGFR kinase inhibition assay (Lance Ultra TR-FRET), double mutant L858R/C797S
- conditions: ATP at Km; read-out: IC50 L858R/C797S (nM), Km ATP
Mark each entry MET if its IC50 sits below 3 nM, and NOT MET for all others.

| compound | category_label |
| --- | --- |
| CC1(CO)CCN(c2cc(Nc3ccnc(-c4cnn(S(=O)(=O)C5CC5)c4)n3)ncc2C#CC2CC(C(C)(C)O)C2)CC1 (stereo not shown) [Example 266] | MET |
| CN(C)C[C@H]1CC[C@@H](Nc2cc(Nc3ccnc(-c4cnn(S(=O)(=O)C5CC5)c4)n3)ncc2C#Cc2cnn(C3CC3)c2)CC1 [Example 313] | MET |
| O=S(=O)(C1CC1)n1cc(-c2nccc(Nc3cc(N[C@H]4CC[C@@H](CO)CC4)c(C#Cc4cnn(CC(F)F)c4)cn3)n2)cn1 [Example 324] | NOT MET |
| Cc1nc(C#Cc2cnc(Nc3ccnc(-c4cnn(S(=O)(=O)C5CC5)c4)n3)cc2NC(C)C)cs1 [Example 199] | NOT MET |
| CC(C)Nc1cc(Nc2ccnc(-c3cnn(S(=O)(=O)C4CC4)c3)n2)ncc1C#CCN1CCCC1 [Example 203] | NOT MET |
| CN(C)C[C@H]1CC[C@@H](Nc2cc(Nc3ccnc(-c4cnn(S(=O)(=O)C5CC5)c4)n3)ncc2C#Cc2cnn(CC3CC3)c2)CC1 [Example 309] | MET |
| CC1(CO)CCN(c2cc(Nc3ccnc(-c4cnn(S(=O)(=O)C5CC5)c4)n3)ncc2C#Cc2ccc(CN3CCOCC3)cc2)CC1 [Example 253] | NOT MET |
| CC1(CO)CCN(c2cc(Nc3ccnc(-c4cnn(S(=O)(=O)C5CC5)c4)n3)ncc2C#CC2CCCC2)CC1 [Example 251] | NOT MET |
| CN1CCC(C#Cc2cnc(Nc3ccnc(-c4cnn(S(=O)(=O)C5CC5)c4)n3)cc2NC2CCC(O)CC2)C1 (stereo not shown) [Example 181] | MET |
| CC1(CO)CCN(c2cc(Nc3ccnc(-c4cnn(S(=O)(=O)C5CC5)c4)n3)ncc2C#Cc2cnn(CC3CCCOC3)c2)CC1 (stereo not shown) [Example 241] | MET |
| CC1(CO)CCN(c2cc(Nc3ccnc(-c4cnn(S(=O)(=O)C5CC5)c4)n3)ncc2C#Cc2ccc(CN3CCOCC3)s2)CC1 [Example 191] | NOT MET |
| O=S(=O)(C1CC1)n1cc(-c2nccc(Nc3cc(N[C@@H]4CCC[C@H](O)C4)c(C#Cc4ccc(CN5CCOCC5)cc4)cn3)n2)cn1 [Example 160] | NOT MET |
